Entry source: a protein production outcome set (Wang et al. 2014)

- Measurement description: label from the status in PepcDB records
Result type: protein production

# count of solved cases: 10
* MTAPAICNTTETVHGIATSLGAVARQASLPRIVGTVVGITVLVVVALLVPVPTAVELRDWAKSLGAWFPLAFLLVHTVVTVPPFPRTAFTLAAGLLFGSVVGVFIAVVGSTASAVIAMLLVRATGWQLNSLVRRRAINRLDERLRERGWLAILSLRLIPVVPFAAINYAAGASGVRILSFAWATLAGLLPGTAAVVILGDAFAGSGSPLLILVSVCTGALGLTGLVYEIRNYRRQHRRMPGYDDPVREPALI | failed
* MRDTTWHVPEDDLRAYVQGELAPPRLWSADTHLAACERCRAALAEAGDPVALDAAWERLDAELDAPRPGMFESLLVRAGVADHTARLLTATPVLRRSWLGAVAFLLVMTVGIVLTVDSPALFLALAPLLPLAGVALSYGPVLDPTYEMAVVAPLHGFRLLLIRTLAVLATGLLLNGLATLALPGYGLRALAWLLPALALTGTGLALTPRLGPVLAPALTGGAWIGLLLVAQARTHETLAPFTMAGQGAAAVVAALAAGLLYRTRDRFDSVAARLPFAHLPGGGAV | failed
* MGHHHHHHSHGQLVRGKVCEYSTDGAYIDIGGKAPAFLPKREAALHAVLDLEAHLPKDEELEFLVIRDQNEDGQVTVSLRA | failed
* MTFCYVNAYQGGYILYNKGTKSKEVAKMSTKKVYSFLSQAFIFSAIMLISNIIATHLPIPMPSSVIGLVILFSLLCLKVIKLEQVESLGTALTGIIGFLFVPSGISVINSLGVMGQYFVQILTVIVVATVILLAVTGLFAQFILGKDEKETEDTKELKVVNKGRKHGKVA | failed
* IEPEYFGEDAAENILIGWGSLEGAIKEAVNDLNKEGKEKYAALIFGDVWPLPEKLLREKASKAKTLIDVEQNAQGQLADIIREGTGIEVDKKILKYDGRPIMASYIVGRIKE | not failed
* MADSSRADFWEQRYREGVTPWEGGQLPPRARAFFAAQRPLRVLMPGCGSAADLPPLLAMGHDVLAVDFSEAAIELAARQWPEAAGRLLLADFFQLQMPAFDCLFERAFLCALPVGMRSQYAERVAALIAPGGALAGVFFVADTERGPPFGMQAEALRELLSPWFELEEDLALDESVAVFRNRERWMVWRRRGFDLGQVSEHESTGNCGAHRKE | failed
* MNYDRYYTCDLVNGEGVRVTLFVTGCAHACDGCHNRSTWDRKSGRPFTPEAREELLRHCASHDGLSLSGGDPLLPANRDEILALCRMFKQRYPQKNIWLWTGYDYEEVRELEILQFVDVLIDGRYRQDLPTSKPWRGSDNQRLIRLGAGSGAAVAAVGAADVIAFEA | failed
* MISAGDFKNGVTFELDGQIFQVIEFQHVKPGKGAAFVRTKLKNIVTGATIEKTFNPTDKMPKAHIERKDMQYLYNDGDLYYFMDTETFEQLPLGKDKIGDALKFVKENEIVKVLSHKGNVFGIEPPNFVELEVTDTEPGFKGDTATGATKPAIVETGASIKVPLFVNKGDIIRIDTRTGEYMERV | not failed
* DAAPAPAAEAAPAAAPAPAAAAELKEVHVPDIGGDEVEVTEIMVAIGDSIEEEQSLITVEGDKASMEVPAPFAGTLKEIKVAAGDKVSTGSLIMVFETAGSGAPAAPAAVEAPAAAAPAASAA | failed
* MSRNPEVLWAQRSDKVYLTVALPDAKDISVKCEPQGLFSFSALGAQGERFEFSLELYGKIMTEYRKNVGLRNIIFSIQKEERSWWTRLLKSEEKPAPYIKVDWNKWCDEDEEVNSETASDDESAFVNQDSESSDDDGLLYLPDLEKARNK | not failed

Lookup: # lookup: protein production of MQVQVSGKHVDVGEALRARVSDEIALSIGKYFDRGGAAEVVVSKEGYAFRVDCSVKLASGQQLISHGSGGDAHAAFDAALAKIDTRIRRYKRRLKSHSAAATAKQVENAAMFVLRAPESDDVDEDWDIEDDHPTGAPAAMVIAETQAAMKTMTVSMAVMELDLTAYPAIVFRNAAHGGISVVYRRPDGNIGWIDPERTKSNGHGSTAS
Found: failed

Lookup: # lookup: protein production of MFALISKINPGAWWLIFAIATDVLSTFYSAKGNGLVNKTAQGIALVLYIISFACAAIALKYMQAGILYVLWSGVGVLATAFLAKIFLGQNIDVAGWIGIGFITVGLMIIAQYY
Found: failed

Lookup: # lookup: protein production of MNLFAPPALFRHFHRMAWLAALFTASTILFGSFVRLSDAGMSCPDWPTCYGRVTWPQTSDEANTHVASKIRPLESHKAWREQVHRFLAGALGVEVLVLSLLAVRRRRMGIAQVVSAAVLVALSIPLYMSGWHATAFGMAITGEAILLLAALRWSNIDLARAAVLTLAVVIFQALLGMWTVTLLLKPIVVMGHLLGGMLMFSLLVWMAWRATHLPITLADASRLKWLLRLGVAVLGLQIALGGWVSANYAALACGGGSWSADNFPRCVSQWWPPHDFREGFTLWRGIGVDYEGGVLDGAARIAIQMAHRLWAIATALYLWWLAWRLSRSPGMRVWAGALALLVAVQVTLGMLNVKLALPLEVSLMHNGGAVALLFVLVSLLARLRAPE
Found: failed

Lookup: # lookup: protein production of MNTLRYFDFGAARPVLLLIARIAVVLIFIIFGFPKMMGFDGTVQYMASLGAPMPMLAAIIAVVMEVPAAILIVLGFFTRPLAVLFIFYTLGTAVIGHHYWDMTGDAVGPNMINFWKNVSIAGAFLLLAITGPGAISLDRR
Found: failed

Lookup: # lookup: protein production of MTQVIIDGDACPVTNSIIELTKGTGIFVTVVRSFSHFSTVIQPEHVNIIYVDDGPDAVDYRIVKLVHSDDLVVTQDYGLASLLLNKAKIVMHHKGLEHHHHHH
Found: failed

* * *

- Measurement description: label from the status in PepcDB records
Result type: protein production

# count of solved cases: 5
- MRVTYWRDESLQKNDRSHIKAYALMSGILAQLVGSILVGIFGGQWIDNKVGTFPLFLIIGLLLGLGTGVYAMIRLIRHYYSGEQ: failed
- MSHIQRETSCSRPRLNSNLDADLYGYRWARDNVGQSGATIYRLYGKPNAPELFLKHGKGSVANDVTDEMVRLNWLTAFMPLPTIKHFIRTPDDAWLLTTAIPGKTAFQVLEEYPDSGENIVDALAVFLRRLHSIPVCNCPFNSDRVFRLAQAQSRMNNGLVDASDFDDERNGWPVEQVWKEMHKLLPFSPDSVVTHGDFSLDNLIFDEGKLIGCIDVGRVGIADRYQDLAILWNCLGEFSPSLQKRLFQKYGIDNPDMNKLQFHLMLDEFF: not failed
- MQFTDGGKEVELRLRLKTGEILSPKDISVDADGTSLAVKEKRNGLLITLLETNHLFEKIMPSETIWYIDEDQLVVNMKKVDGELKWPDIVESWESLTAGMMQLLKGASIYIVGDSTEINQKVSRELAVGLGYSPLDSKELLESFSKQTIDSWILAEGPDSVAEAESSVLESLSSHVRTVVSTLGGKHGAAGRADQWRHLYSGFTVWVSQTEATDEESAKEEARRSKQEREIGYSNADVVVKLQGWDPTHAKSVAQASLSALKQLIISDKGLPGNK: failed
- VTPQGLRIVLQDDYKQHMFSRGGAELTPFFEDLLLALAPLFEQVTNPLIISGHTDAIPFKKRFGRQSNWALSASRADVARKTLVEGGMPDDRVMQVTGMSDRALLNPDEPDSSENRRIELFILTTP: failed
- MKMDTGALTFQQKIYWLVKQIPLGRVATYGQIAALCGWPRHGRYVGYALYRVAPNSDIPWHRVVNAQGKISYAPQRRGTDELQRWRLAAEGIIFTAGDRINLRRYQWQPPATVYQQLIWPEGAATDSAKAKVG: failed

Lookup: # lookup: protein production of MSIPLLEYAPSSQNQRVEGYEVPNEDTPTIYRLAAAIDDADVDAIIWAGYRQIFSEHLIIKSNRQSFLESQLRNRAINVRDFIRGLGKSEVYRTQVADLNSNYRLVDITLKRFLGRAAYNQDEEIAWSIVIGSQGLHGFIDALLDSDEYRENFGDDIVPYQRRRYKDRPFNLVNPRYNAYWRDRQTLNALGGRSFYSARTSGTLTKDDIRRAIPANFMALAGKILTPERNYQRTIASVTSQIKDIKIPDTSREVTTPEVTVKPVAVALPYRYIPGNKTT
Found: failed

Lookup: # lookup: protein production of MFISCIILINYSYIFGKNIRYLYEFKVIWKSNNSLILFFIEFDRNFMTIKFKLFKCRRLNILIELINIENYFRNGNILCFIFNIPSIPRNLLINVFLTSSNKVNISIQGLKLEHHHHHH
Found: failed

Lookup: # lookup: protein production of MIITIANEKGGSGKSTLCLNLCVQLLLDKKDIAALDTDSQKSLEVFNNIRSETSLPNFTLFNRTGNITDTLKQMMDKYEYILIDTKGEHSKESQRAMLLSDWVLIPTTPSQLDTAVLLDMLERIRDIQALNENLKACIVMNRIPTIPTLKEKKALIDFINQNNANESVFLMDNLLSERIAYKRSVSEGMGVMEYNDNKAKNEWSQFYDELNGYLRIKK
Found: failed

Lookup: # lookup: protein production of MTAIYIGVMTGTSMDGVDFVAASFDPLHIHATLTLPFEPALRDELMALTLPGDNEIDRMGKADVGLAKLIGHGINMLIEQNHLDRHVIKAIGSHGQTIRHRPEHGFTLQIGDPHIITELTGIPVISDFRRRDMAAGGQGAPLVPAFHQAIFQHSTIHRVILNLGGIANVSLLPAGNPDGVYGFDTGPANILMDAWCERYTGHPYDENGNWAAYGQPIRALLERLQAHEFFSKKPPKSTGREDFNLDWLDDQLADWRNDELEYDELEDTPENVQATLLKLTTRAIKKAIYRSELDTGEVYVCGGGAYNSHLLEQLRWRLRKHHWSVQSTSVLGLSPTWVEATAFAWLAMRFMQQQSANLPSVTGAAGFRILGTITSV
Found: failed

Lookup: # lookup: protein production of MQTKKAFLYVFNTMSDWEYGYLIAELNSGRYFKKDLAPLKVITVGANKEMITTMGGLRIKPDISLDECTLESKDLLILPGGTTWSEEIHQPILERIGQALKIGTIVAAICGATDALANMGYLDTRKHTSNNLEYTKMVCPNYKGEKFYELGPAVSDANLVTASGIAPLEFAMEVLKKIDVFTLDALHSWYNLNKTHKPEYFFQLMNSINK
Found: not failed

Lookup: # lookup: protein production of MDKVILITGASGGIGEGIARELGRRCENIVGCTPPGPYRGHCHGDSTQEVPPWRRCWTPTVTPWQPLQAAVDTWGRIDVLVNNAGVMPLSACRSGGRVGAHDRREHQGRALGSGPYCQSWRHSVAGRSSISARSALSVVPTAAVYCATKFAVRAISDTAPGEYQYPRHLRQSRRRRKRTCEPSPTRRPWRRWTPIAPSRFSLDIARAVRQVIEAPQSVDTTEITITDRIGQL
Found: not failed

Lookup: # lookup: protein production of MTNIFASWGLIKLEIVRALRNRKFLFFSVIYPSALFLLIAGSADSTTKVEGTGLSLPTFFMVSMASFGALTAVLMGNSERIAKERESGWVRQLRLTTLPGRGYVLAKTASAAVISLPSILIVFVVAAAVKNVRLDAWQWLALTGTIWVGSLVFAALGVAIGYLATGDAVRPITMIVYFGLSMLGGLWMPTTTFPDWLQSIAKWLPTHAYAALGQAIELGNAPQAKDIAILAVSFVLFAGGAAWLYRKDTLKA
Found: failed

Lookup: # lookup: protein production of MTRVTTTGIPMNNVPSGRHHVSTSRNLFAWFLFALLLLSLYLSYQLVAPFLHTIILSSVFSASIYPFYRRLTSYLGERPVPAALLVLAGVVILVVIPVVVFVIGLIPQAVASVSAITRWLAGHGGLDGLNDAALAPYIAWVRENLPFIDPAQLDVRSSLVQASRAAGQTLLQWGTYVLGNTLLLFGHFLLLLLCMFFMLKDGAWMVQRVRYLSPLRIDQQDRIILELRRVGRSVLVGGLLVAVIQGLLGGVALAAVGIPALFWGTLMAFASLVPVVGTGLVWVPAVCYLLLTSQWESALFLSLWCGIVVVGADSILRPYFMRGGVGMPVFFIFLSILGGVKAFGMLGILDGPLILSFTVVMLSLYGDEYRDILDAGSLAHSRGAECEKGEASEEGPDGT
Found: failed
